- System: Nakaseomyces glabratus
- measurement_notes: Antifungal activity against Candida glabrata ATCC 15126 assessed as reduction in fungal growth incubated for 24 hrs by CLSI based microdilution analysis
- Assay type: functional
measurement_label: MIC80 (µg/mL)
Numbers only, in µg/mL.

Consider the worked cases shown below.
compound: COc1ccc2c(ccn2CCCN2CCN(CC(O)(Cn3cncn3)c3ccc(F)cc3F)CC2)c1 (stereo unspecified)
quantity_unit: µg/mL
MIC80: 0.312
--
compound: O[C@@](CN1CCN(CCn2ccc3cc(Br)ccc32)CC1)(Cn1cncn1)c1ccc(F)cc1F
quantity_unit: µg/mL
MIC80: 0.078
--
compound: O=[N+]([O-])c1ccc2c(ccn2CCCN2CCN(CC(O)(Cn3cncn3)c3ccc(F)cc3F)CC2)c1 (stereo unspecified)
quantity_unit: µg/mL
MIC80: 0.625

Give measured MIC80 for every item shown.
1. Cc1ccc2c(ccn2CCCN2CCN(CC(O)(Cn3cncn3)c3ccc(F)cc3F)CC2)c1 (stereo unspecified)
2. C[C@@H](c1ncncc1F)[C@](O)(Cn1cncn1)c1ccc(F)cc1F
3. OC(CN1CCN(CCCn2ccc3cc(Br)ccc32)CC1)(Cn1cncn1)c1ccc(F)cc1F (stereo unspecified)

[0.625, 0.312, 0.312]

Give measured MIC80 for every item shown.
1. CCC(C)n1ncn(-c2ccc(N3CCN(c4ccc(OCC5COC(Cn6cncn6)(c6ccc(Cl)cc6Cl)O5)cc4)CC3)cc2)c1=O (stereo unspecified)
2. OC(CN1CCN(CCCCn2ccc3cc(Br)ccc32)CC1)(Cn1cncn1)c1ccc(F)cc1F (stereo unspecified)
3. OC(Cn1cncn1)(Cn1cncn1)c1ccc(F)cc1F
4. O=[N+]([O-])c1ccc2c(ccn2CCN2CCN(CC(O)(Cn3cncn3)c3ccc(F)cc3F)CC2)c1 (stereo unspecified)
5. OC(CN1CCN(CCCn2ccc3cc(Cl)ccc32)CC1)(Cn1cncn1)c1ccc(F)cc1F (stereo unspecified)
6. OC(CN1CCN(CCn2ccc3cc(Br)ccc32)CC1)(Cn1cncn1)c1ccc(F)cc1F (stereo unspecified)
7. OC(CN1CCN(CCCn2ccc3ccccc32)CC1)(Cn1cncn1)c1ccc(F)cc1F (stereo unspecified)

1. 0.625
2. 0.312
3. 2.5
4. 0.312
5. 0.312
6. 0.156
7. 0.625
